- measured-on: mouse TMEM16A mutant T539A (Mus musculus, UniProt Q8BHY3, T539A)
- Construct: expressed in transfected cells; host or cells: HEK293T
- assay-method-text: Inside-out patch recording of 1PBC block, mutant T539A
- Assay type: cell-based
- condition-details: 120 mV; 2 µM Ca2+
property: IC50 (µM)

• N#Cc1c(C(F)(F)F)cc(O)n2c1nc1ccccc12 = 8.83

* * *

- measured-on: mouse TMEM16A mutant Q637A (Mus musculus, UniProt Q8BHY3, Q637A)
- Construct: expressed in transfected cells; host or cells: HEK293T
- Sequence (Q8BHY3 1-960 Q637A): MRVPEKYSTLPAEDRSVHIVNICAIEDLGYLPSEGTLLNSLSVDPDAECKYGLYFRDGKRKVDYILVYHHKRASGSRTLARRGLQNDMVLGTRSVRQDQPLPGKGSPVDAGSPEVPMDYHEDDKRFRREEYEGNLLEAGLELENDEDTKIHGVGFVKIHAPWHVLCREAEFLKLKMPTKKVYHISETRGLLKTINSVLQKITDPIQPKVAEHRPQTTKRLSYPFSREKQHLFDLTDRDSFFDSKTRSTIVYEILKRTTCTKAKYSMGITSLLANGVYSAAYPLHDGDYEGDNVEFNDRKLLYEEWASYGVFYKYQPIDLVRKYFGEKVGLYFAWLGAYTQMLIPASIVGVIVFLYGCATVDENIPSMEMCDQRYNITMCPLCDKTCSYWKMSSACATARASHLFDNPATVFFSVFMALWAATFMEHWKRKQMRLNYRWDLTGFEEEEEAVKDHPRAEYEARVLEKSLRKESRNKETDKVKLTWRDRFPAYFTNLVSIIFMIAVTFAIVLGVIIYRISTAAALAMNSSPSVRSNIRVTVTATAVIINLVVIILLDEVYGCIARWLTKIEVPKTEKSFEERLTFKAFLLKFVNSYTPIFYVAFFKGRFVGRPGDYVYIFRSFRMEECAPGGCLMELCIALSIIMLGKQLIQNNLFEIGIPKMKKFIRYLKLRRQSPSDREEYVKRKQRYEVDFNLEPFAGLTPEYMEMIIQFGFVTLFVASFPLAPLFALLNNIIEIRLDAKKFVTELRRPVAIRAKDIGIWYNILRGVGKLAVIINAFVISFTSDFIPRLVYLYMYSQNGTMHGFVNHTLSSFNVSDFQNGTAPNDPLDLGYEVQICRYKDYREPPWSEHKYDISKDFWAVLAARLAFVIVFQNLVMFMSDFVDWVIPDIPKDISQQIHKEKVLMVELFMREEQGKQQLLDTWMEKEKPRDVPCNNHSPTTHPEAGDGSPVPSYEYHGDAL
- assay-method-text: Inside-out patch recording of 1PBC block, mutant Q637A
- Type: cell-based
- condition-details: Q637A; V -60 mV
property: IC50 (µM)

• N#Cc1c(C(F)(F)F)cc(O)n2c1nc1ccccc12 = 4.04

* * *

- measured-on: mouse TMEM16A mutant I512A (Mus musculus, UniProt Q8BHY3, I512A)
- Construct: expressed in transfected cells; host or cells: HEK293T
- Sequence (Q8BHY3 1-960 I512A): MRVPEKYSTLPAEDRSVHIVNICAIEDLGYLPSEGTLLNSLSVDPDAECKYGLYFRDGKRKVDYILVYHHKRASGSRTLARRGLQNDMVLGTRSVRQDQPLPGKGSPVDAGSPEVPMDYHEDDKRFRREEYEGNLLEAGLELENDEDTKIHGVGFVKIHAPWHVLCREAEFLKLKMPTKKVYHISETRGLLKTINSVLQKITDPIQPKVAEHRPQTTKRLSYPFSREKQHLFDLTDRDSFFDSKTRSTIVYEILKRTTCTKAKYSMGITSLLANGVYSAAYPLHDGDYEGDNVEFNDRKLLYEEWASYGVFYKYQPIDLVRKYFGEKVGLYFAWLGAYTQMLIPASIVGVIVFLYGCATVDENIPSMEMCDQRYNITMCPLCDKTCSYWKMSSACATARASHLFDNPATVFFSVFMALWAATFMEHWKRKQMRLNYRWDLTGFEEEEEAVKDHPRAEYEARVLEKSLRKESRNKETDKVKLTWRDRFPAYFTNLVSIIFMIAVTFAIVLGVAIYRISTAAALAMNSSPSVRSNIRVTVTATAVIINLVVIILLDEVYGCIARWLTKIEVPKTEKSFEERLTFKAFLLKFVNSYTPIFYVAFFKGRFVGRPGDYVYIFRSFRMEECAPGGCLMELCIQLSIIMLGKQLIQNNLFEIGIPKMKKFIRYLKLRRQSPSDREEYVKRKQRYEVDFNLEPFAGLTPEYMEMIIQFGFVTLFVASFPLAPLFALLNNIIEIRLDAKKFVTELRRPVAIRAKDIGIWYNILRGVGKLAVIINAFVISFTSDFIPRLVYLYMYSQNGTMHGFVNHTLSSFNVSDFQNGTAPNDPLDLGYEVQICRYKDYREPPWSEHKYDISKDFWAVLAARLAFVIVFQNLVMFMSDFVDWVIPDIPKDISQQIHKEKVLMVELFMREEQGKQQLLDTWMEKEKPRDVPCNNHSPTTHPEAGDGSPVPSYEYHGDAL
- assay-method-text: Inside-out patch recording of 1PBC block, mutant I512A
- Type: cell-based
- condition-details: 60 mV; 2 µM Ca2+
property: IC50 (µM)

* N#Cc1c(C(F)(F)F)cc(O)n2c1nc1ccccc12 | 19

* * *

- measured-on: mouse TMEM16A mutant N546A (Mus musculus, UniProt Q8BHY3, N546A)
- Construct: expressed in transfected cells; host or cells: HEK293T
- Sequence (Q8BHY3 1-960 N546A): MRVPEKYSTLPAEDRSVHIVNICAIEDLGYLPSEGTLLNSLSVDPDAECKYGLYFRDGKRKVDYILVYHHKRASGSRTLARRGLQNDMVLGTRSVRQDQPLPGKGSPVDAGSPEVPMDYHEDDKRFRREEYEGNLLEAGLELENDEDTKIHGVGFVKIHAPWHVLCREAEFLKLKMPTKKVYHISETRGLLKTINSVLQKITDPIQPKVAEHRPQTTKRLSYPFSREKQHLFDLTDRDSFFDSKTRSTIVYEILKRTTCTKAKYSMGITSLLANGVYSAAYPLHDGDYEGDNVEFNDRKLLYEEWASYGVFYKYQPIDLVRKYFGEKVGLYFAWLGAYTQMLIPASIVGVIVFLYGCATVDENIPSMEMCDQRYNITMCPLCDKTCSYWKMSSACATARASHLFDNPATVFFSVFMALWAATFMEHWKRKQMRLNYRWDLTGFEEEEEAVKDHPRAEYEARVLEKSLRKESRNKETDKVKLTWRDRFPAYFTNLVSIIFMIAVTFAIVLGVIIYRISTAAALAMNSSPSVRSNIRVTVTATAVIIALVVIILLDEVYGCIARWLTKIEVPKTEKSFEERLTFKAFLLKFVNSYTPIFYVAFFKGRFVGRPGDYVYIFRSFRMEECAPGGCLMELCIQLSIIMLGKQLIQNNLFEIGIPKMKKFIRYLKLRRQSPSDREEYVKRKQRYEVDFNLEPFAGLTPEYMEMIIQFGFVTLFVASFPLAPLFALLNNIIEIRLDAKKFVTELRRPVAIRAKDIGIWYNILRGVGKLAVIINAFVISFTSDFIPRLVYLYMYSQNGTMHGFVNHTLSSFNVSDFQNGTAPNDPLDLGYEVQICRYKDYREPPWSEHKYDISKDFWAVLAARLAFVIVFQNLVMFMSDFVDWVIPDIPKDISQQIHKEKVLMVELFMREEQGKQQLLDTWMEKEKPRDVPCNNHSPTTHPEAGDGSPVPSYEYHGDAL
- assay-method-text: Inside-out patch recording of 1PBC block, mutant N546A
- Assay type: cell-based
- condition-details: -140 mV; 2 µM Ca2+
property: IC50 (µM)

* N#Cc1c(C(F)(F)F)cc(O)n2c1nc1ccccc12 | 3.1

* * *

- measured-on: mouse TMEM16A mutant I512A (Mus musculus, UniProt Q8BHY3, I512A)
- Construct: expressed in transfected cells; host or cells: HEK293T
- assay-method-text: Inside-out patch recording of 1PBC block, mutant I512A
- Format: cell-based
- condition-details: I512A; V -80 mV
property: IC50 (µM)

* N#Cc1c(C(F)(F)F)cc(O)n2c1nc1ccccc12 [1PBC] | 57.9

* * *

- measured-on: mouse TMEM16A mutant G558P (Mus musculus, UniProt Q8BHY3, G558P)
- Construct: expressed in transfected cells; host or cells: HEK293T
- Sequence (Q8BHY3 1-960 G558P): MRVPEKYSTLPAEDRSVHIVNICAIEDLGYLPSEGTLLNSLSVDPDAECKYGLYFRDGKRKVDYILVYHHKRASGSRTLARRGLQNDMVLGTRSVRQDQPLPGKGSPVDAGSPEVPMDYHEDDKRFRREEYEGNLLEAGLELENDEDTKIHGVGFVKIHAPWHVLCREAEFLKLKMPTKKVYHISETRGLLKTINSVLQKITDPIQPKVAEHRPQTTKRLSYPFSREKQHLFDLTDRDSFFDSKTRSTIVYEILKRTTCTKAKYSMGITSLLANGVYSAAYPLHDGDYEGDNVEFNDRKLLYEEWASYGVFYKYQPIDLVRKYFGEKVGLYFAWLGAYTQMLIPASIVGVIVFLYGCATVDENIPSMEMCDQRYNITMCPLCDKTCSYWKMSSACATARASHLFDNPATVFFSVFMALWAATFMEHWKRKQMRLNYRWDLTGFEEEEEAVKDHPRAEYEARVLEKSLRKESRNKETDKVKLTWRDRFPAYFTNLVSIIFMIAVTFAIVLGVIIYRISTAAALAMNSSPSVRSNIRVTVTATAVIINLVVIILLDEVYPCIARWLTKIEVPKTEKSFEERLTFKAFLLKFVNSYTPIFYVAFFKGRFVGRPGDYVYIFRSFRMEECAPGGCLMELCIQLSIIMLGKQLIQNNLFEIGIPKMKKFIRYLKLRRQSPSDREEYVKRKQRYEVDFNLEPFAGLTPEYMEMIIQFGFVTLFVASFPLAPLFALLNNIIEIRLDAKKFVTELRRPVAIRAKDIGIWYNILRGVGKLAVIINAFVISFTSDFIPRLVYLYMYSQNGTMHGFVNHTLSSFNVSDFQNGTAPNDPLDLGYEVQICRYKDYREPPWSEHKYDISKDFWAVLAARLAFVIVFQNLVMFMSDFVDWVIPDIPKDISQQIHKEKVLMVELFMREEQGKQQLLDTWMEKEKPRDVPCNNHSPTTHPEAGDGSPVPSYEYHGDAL
- assay-method-text: Inside-out patch recording of 1PBC block, mutant G558P
- Format: cell-based
- condition-details: -80 mV; 15 µM Ca2+
pIC50: −log10 of the molar value.
property: pIC50

* N#Cc1c(C(F)(F)F)cc(O)n2c1nc1ccccc12 [1PBC] | 4.77

Attribution: paper PMC9120017
